system: BT-549 breast; experiment: NCI-60 one-dose screen, 48 h; details: 10 µM unless noted
About 83,000 compounds went through this panel and 20% of them were active in at least one assay; those are over-represented in the sample as a whole. The source made the active and inactive calls. How the source made its calls: active means growth percent below 10; inactive means the rest.
Reply using exactly one outcome from yes (active), no (inactive)

Record excerpt, results attached:
compound: N#C/C(=N\Nc1ccc(F)cc1)C(=O)Nc1cc(-c2ccccc2)nn1-c1ccccc1
system-name: BT-549 breast
discrete-label: yes

compound: O=C(CSc1nnc(-c2ccc(Cl)cc2)n1-c1ccccc1)Nc1ccccc1Cl
system-name: BT-549 breast
discrete-label: no

compound: O=C(Nc1ccc(N=Cc2c(O)[nH]c3ccccc23)cc1)Nc1ccc(S(=O)(=O)Nc2ncccn2)cc1
system-name: BT-549 breast
discrete-label: no

compound: O=c1c2cc(-c3ccc(F)cc3F)ccc2n(O)c(=O)n1-c1cccc(C(F)(F)F)c1
system-name: BT-549 breast
discrete-label: yes

compound: CC1=Cc2ccccc2OC12C=Cc1ccccc1O2 (stereo unspecified)
system-name: BT-549 breast
discrete-label: no

*Q* Lab log entry: Cc1csc(/N=C(N)/N=C(\N)c2cccnc2)n1 — outcome as called in the assay?
*A* no

*Q* State the result this test recorded for CSc1ccc(/C(=N/N=C(N)N)c2ccc(F)cc2)cc1 .
*A* no

###

system: IGROV1 ovarian; experiment: NCI-60 one-dose screen, 48 h (100 = growth as untreated, 0 = no growth, -100 = all killed); conditions: 10 µM unless noted
The panel holds about 83,000 compounds, 20% with a hit somewhere; the sample as a whole holds those more often.
Respond with yes (1) for growth values of 70% and above, no (0) for values below.

Take a look at these entries with their results.
compound: O=C1/C(=C/C=C/c2ccco2)SC(=S)N1Cc1ccccc1
discrete-label: yes (1)
--
compound: CCCCSC1=C(Cl)CN(c2ccc(Cl)cc2)C1=O
discrete-label: yes (1)
--
compound: O=C(/C=C/c1csc(Br)n1)NO
discrete-label: no (0)

*Q* Test whether the compound C#CCOc1cccc(-c2nc(N)nc(Nc3ccccc3SSc3ccccc3Nc3nc(N)nc(-c4cccc(OCC#C)c4)n3)n2)c1 records growth of 70% or higher.
*A* no (0)

*Q* growth >= 70% for CC(O)c1cccc(/C(N)=N/C(N)=N/c2nc3ccccc3s2)c1 (stereo unspecified) ?
*A* yes (1)

###

system: NCI-H322M lung; experiment: NCI-60 one-dose screen, 48 h (100 = growth as untreated, 0 = no growth, -100 = all killed); settings: 10 µM unless noted
This is part of a sample that, as a whole, favours compounds with a hit. Of some 83,000 tested, about 20% had one in any assay.
I would appreciate it if you labelled entries 1 (yes) when growth is 80% or higher, otherwise 0 (no).

Example entries begin here.
molecule: C#CCN(C)CCCOc1ccc(NCc2ccc(C(=O)NO)cc2)cc1Cl
discrete-label: 0 (no)
--
molecule: C=CCSC1=NC2C(N(CC)C(=O)N2CC)N1/N=C/C=C/c1ccccc1OC (centres undefined)
discrete-label: 1 (yes)
--
molecule: CN1CC[C@@H]2[C@@]3(C)CC[C@H](O)C(C)(C)[C@@H]3CC[C@@]2(C)[C@]2(C)CC[C@@]3(CO)CCC(C)(C)C[C@@H]3C12 (some centres undefined)
discrete-label: 1 (yes)
--
molecule: C=C(C)[C@@H]1CC[C@]2(C(=O)N3CCN(C)CC3)CC[C@]3(C)[C@H](CC[C@@H]4[C@@]5(C)CC[C@H](OP(=O)(OCC)OCC)C(C)(C)[C@@H]5CC[C@]43C)[C@@H]12
discrete-label: 1 (yes)

*Q* Kindly determine if growth recorded for O=C(CSc1nc2ccccc2c(=O)n1-c1ccccc1)N/N=C/c1ccc(Oc2ccc(Br)cc2)cc1 is above or exactly 80%.
*A* 1 (yes)

*Q* Is growth at least 80%? Consider C#C[C@]1(O)CC[C@H]2[C@@H]3CC=C4c5sc(Nc6cc(Cl)ccc6OC)nc5CC[C@]4(C)[C@H]3CC[C@@]21C
*A* 0 (no)

*Q* Quick check: does Cc1ccc(C)c(NC2=C(Cl)C(=O)c3nc(C)ccc3C2=O)c1 have growth greater than or equal to 80%?
*A* 0 (no)

*Q* Textbook exercise: given the entry COc1cc2oc(-c3cccc(NC(=O)c4cccc([N+](=O)[O-])c4)c3)cc(=O)c2c(OC)c1OC , state whether its growth is greater than or equal to 80%.
*A* 1 (yes)

*Q* Evaluate C=C(C)[C@@H]1CC[C@]2(C(=O)NC3CCCCC3)CC[C@]3(C)[C@H](CC[C@@H]4[C@@]5(C)CC[C@H](N)C(C)(C)[C@@H]5CC[C@]43C)[C@@H]12 : growth at minimum 80%?
*A* 1 (yes)

*Q* Is growth at least 80%? Consider COc1cc(-c2nc(-c3ccccc3)[nH]c2-c2ccnc(NCCCNS(=O)(=O)c3ccc(C)cc3)n2)ccc1F
*A* 1 (yes)

*Q* I'd appreciate it if you could say whether Cc1nc(/N=C(N)/N=C(\N)c2cccc(Br)c2)sc1C has growth at least equal to 80%.
*A* 1 (yes)

*Q* growth >= 80% for CC(=O)Nc1nc(C)c(-c2csc(Nc3ccccc3)n2)s1 ?
*A* 0 (no)

*Q* Evaluate O=C1[C@@H]2Cc3c([nH]c4ccccc34)[C@@H](c3ccc(Cl)cc3)N2C(=O)CN1C1CCN(Cc2c(F)cccc2F)CC1 : growth at minimum 80%?
*A* 0 (no)

*Q* hey, is growth for this one >= 80%? C/C(=N/N)c1nnn(-c2ccc(Br)cc2)c1C
*A* 1 (yes)

*Q* Hi, just wondering whether CCOC(=O)c1cnc2c(-c3ccc(Cl)c(Cl)c3)cnn2c1 shows growth of 80% or higher.
*A* 1 (yes)

*Q* Exam item: decide whether the reported growth for CNC(=O)c1cc(-n2ccc3cc(NC(=O)Nc4ccc(N5CCN(C)CC5)c(C(F)(F)F)c4)ccc32)ccn1 is at least 80%.
*A* 1 (yes)

*Q* Record O=C(/C=C/c1ccccc1)c1cccc(O)c1 ; criterion: growth no lower than 80%. Met?
*A* 1 (yes)

*Q* For this molecule, is measured growth 80% or higher? COc1ccc(-c2cnc(NC(=O)CCCCCCNC(=O)C(O)(O)C(F)(F)F)s2)cc1
*A* 0 (no)

*Q* Has CCOP(=O)(OCC)OC[C@]12CCC(C)(C)C[C@H]1C1=CC[C@@H]3[C@@]4(C)CC[C@H](OP(=O)(OCC)OCC)C(C)(C)[C@@H]4CC[C@@]3(C)[C@]1(C)CC2 a recorded growth greater than or equal to 80%?
*A* 1 (yes)

*Q* Does growth meet or surpass 80% for COc1ccc(OC)c(NC(=O)CCCCCCNC(=O)C(O)(O)C(F)(F)F)c1 ?
*A* 0 (no)

*Q* Decide: is the reported value of growth for CC(Nc1c(C#N)cnc2ccc(-c3cncc(O)c3)cc12)c1ccccc1 (centres undefined) equal to or greater than 80%?
*A* 0 (no)

*Q* Hi team, for Cc1[nH]c(C(=O)Nc2ccc(C(N)=O)cc2N2CCOC(C)C2)c(Cl)c1Cl (centres undefined) , is the recorded growth at or above 80%?
*A* 1 (yes)

###

Test system: A498 renal
Assay: NCI-60 one-dose screen, 48 h (100 = growth as untreated, 0 = no growth, -100 = all killed)
Settings: 10 µM unless noted
Protocol: Growth inhibition of the A498 human tumor cell line is measured as a screen for anti-cancer activity. Cells are grown in 96 well plates and exposed to the test compound for 48 hours. Compounds are tested at a single concentration, which is 10^-5 M for most compounds. The reported endpoint is percent growth (GI% or GIPRCNT), where numbers from 0 - 100% represent growth inhibition, and numbers from -100% - 0 represent cell death. For example, a value of 40 represents 60% growth inhibition. […]
The panel holds about 83,000 compounds, 20% with a hit somewhere; the sample as a whole holds those more often.
endpoint-name: growth (%)
Give bare numbers, in %.

Example results:
compound: CN1CCN(c2ccc(Nc3nc(NCCNC(=O)c4ccccc4)c4sccc4n3)cc2)CC1
growth, %: 130

compound: C#C[C@]1(O)CC[C@H]2[C@@H]3CC=C4c5sc(N6CCN(C)CC6)nc5CC[C@]4(C)[C@H]3CC[C@@]21C
growth, %: 86

compound: CCN(CC)CCOc1ccc(C(=C(c2ccccc2)C2CCCC2)c2ccc(OCCN(CC)CC)cc2)cc1
growth, %: 96.5

I'm hoping you can list growth for every compound here, please.
1. NS(=O)(=O)c1ccc(Nc2nc(N/N=C/C=C/c3ccccc3)nc(Nc3ccccc3)n2)cc1
2. NS(=O)(=O)c1ccc(Nc2nc(Nc3ccccc3)nc(N3N=C(c4ccc(Cl)cc4)CC3c3ccc(Cl)cc3)n2)cc1 (centres undefined)

*A*
[40.2, 55.8]

Required: growth, one value per compound below.
1. O=[N+]([O-])c1ccc(NC(=S)NNC(=S)Nc2ccc(F)cc2)cc1
2. CN1CCN(Cc2ccc(NC(=O)c3cncc(C#Cc4cnc5ccc(N)nn45)c3)cc2C(F)(F)F)CC1
3. C=C1CCc2nc(SCC(=O)O)ccc2N1
4. COc1cc(C(=O)c2cc(C(C)=O)c3ccc(C)cn23)cc(OC)c1OC

*A*
[81.4, 67, 85.7, 38.3]
